Reference source for all entries: paper PMC4917206

# target.or.system: HLA-A*0301 (Homo sapiens)
# Construct: Soluble MHC was dissolved in PBS containing 0.5 mg/ml bovine γ-globulin; made in house
# Type: binding
Use Y when the recorded FP binding score, percentage inhibition of tracer peptide binding, 24h is no lower than 90%; use N when it is lower.

>>> classification("SFSFGGFTK [S WT, reference compound]")
"N"
>>> classification("S[NVA][CSME]FGGFTK [S93]")
"Y"
>>> classification("S[NVA]RFGGFTK [S53]")
"Y"
>>> classification("RMVLSAF[CSET]ER [R37]")
"N"
>>> classification("R[AHA]VLSAFDEK [R2]")
"N"
>>> classification("RMVLSAFDEK [R4]")
"N"

---

# target.or.system: HLA-A*0301 (Homo sapiens, UniProt P04439)
# Construct: Soluble MHC was dissolved in PBS containing 0.5 mg/ml bovine γ-globulin; made in house
# Format: binding
Use Met when the recorded FP binding score, percentage inhibition of tracer peptide binding, 4h is no lower than 70%; use Not met when it is lower.

>>> classification("RMVLSAF[ORN]ER [R41]")
"Not met"
>>> classification("S[NVA]RFGGFTK [S53]")
"Met"
>>> classification("R[NVA]VLSAFDKR [R59]")
"Not met"
>>> classification("RMVLSAF[4-FPHE]ER [R40]")
"Not met"
>>> classification("S[NVA][NLE]FGGFTK [S94]")
"Met"
>>> classification("S[NVA][2-AOC]FGGFTK [S50]")
"Met"
>>> classification("R[AHA]VLSAFDEK [R2]")
"Not met"
>>> classification("I[AHA][4-FPHE]GSVAHK [I87]")
"Met"
>>> classification("RMVLSAF[PRG]ER [R39]")
"Not met"

---

# target.or.system: HLA-A*0301 (Homo sapiens, UniProt P04439)
# Construct: Soluble MHC was dissolved in PBS containing 0.5 mg/ml bovine γ-globulin; made in house
# Format: binding
Use yes (1) when the recorded FP binding score, percentage inhibition of tracer peptide binding, 24h is no lower than 70%; use no (0) when it is lower.

>>> classification("I[OrnN2]RGSVAHK [I49]")
"yes (1)"
>>> classification("RMVLSAF[PRG]ER [R39]")
"no (0)"
>>> classification("IL[4-FPHE]GSVAHK [I94]")
"yes (1)"
>>> classification("RMVLSAF[4-FPHE]ER [R40]")
"no (0)"
>>> classification("RMVLSAF[AHA]ER [R81]")
"yes (1)"
>>> classification("I[AHA][4-FPHE]GSVAHK [I87]")
"yes (1)"
>>> classification("RMVLSAF[NLE]ER [R36]")
"yes (1)"

---

# target.or.system: HLA-A*0301 (Homo sapiens, UniProt P04439)
# Construct: Soluble MHC was dissolved in PBS containing 0.5 mg/ml bovine γ-globulin; made in house
# Format: binding
// values below are reported FP binding score, percentage inhibition of tracer peptide binding, 4h
property.label: FP binding score, percentage inhibition of tracer peptide binding, 4h (%)

>>> measured_value("I[AHA][PRG]GSVAHK [I84]")
71
>>> measured_value("SFSFGGFTK [S WT, reference compound]")
67
>>> measured_value("RMVLSAFDEK [R4]")
61
>>> measured_value("SF[4-FPHE]FGGFTK [S84]")
82
>>> measured_value("[2-AOC][NLE]RGSVAHK [I60]")
72
>>> measured_value("ILRGSV[NLE]HK [I63]")
74
>>> measured_value("I[AHA][SOME]GSVAHK [I85]")
69
>>> measured_value("S[NVA][4-FPHE]FGGFTK [S95]")
80
>>> measured_value("I[AHA][CHA]GSVAHK [I89]")
75
>>> measured_value("ILRGSVAHK [I WT, reference compound]")
66
>>> measured_value("RMVLSAF[CpALA]ER [R42]")
65
>>> measured_value("RMVLSAFDER [R WT, reference compound]")
18
>>> measured_value("ILRGSV[2-AOC]HK [I65]")
87
